Entry source: patent US20180057505A1

- MEASUREMENT NOTES: In vivo rat pharmacokinetics experiments
- ASSAY CONDITIONS: non-compartmental analysis
RECORDED ENDPOINT: T ½ (h)

compound="CC(C)(C)c1cc(-c2ccc(Cl)c(F)c2)nc2cc(C(=O)N3CCN(C(=O)CC4(C(=O)O)CCCC4)CC3(C)C)oc12 [Compound I-324]" recorded_endpoint="T ½" recorded_value=0.47
compound="CC(C)(CCC(=O)N1CCN(C(=O)c2cc3nc(-c4ccc(Cl)c(F)c4)cc(C(C)(C)C)c3o2)C(C)(C)C1)C(=O)O [Compound I-367]" recorded_endpoint="T ½" recorded_value=0.32
compound="CC(C)(C)c1cc(-c2ccc(Cl)c(F)c2)nc2cc(C(=O)N3CCN(c4ncc(-c5nnn[nH]5)cn4)CC3(C)C)oc12 [Compound I-331]" recorded_endpoint="T ½" recorded_value=1.6
compound="CC(C)(C)c1cc(-c2ccc(Cl)c(F)c2)nc2cc(C(=O)N3CCN(c4ccn[nH]4)C(=O)C3(C)C)oc12 [Compound I-406]" recorded_endpoint="T ½" recorded_value=23.2
compound="Cc1nc(N2CCN(C(=O)c3cc4nc(C5CCC(C)(C)CC5)cc(C(C)(C)C)c4o3)C(C)(C)C2)ncc1C(=O)O [Compound I-465]" recorded_endpoint="T ½" recorded_value=5.1
compound="CC(C)(C)c1cc(-c2ccc(Cl)c(F)c2)nc2cc(C(=O)N3CCN(c4cn[nH]c4)C(=O)C3(C)C)oc12 [Compound I-260]" recorded_endpoint="T ½" recorded_value=30.7
